- PROTOCOL: qHTS for Inhibitors of the Functional Ribonucleoprotein Complex (vRNP) of Lymphocytic Choriomeningitis Arenaviruses (LCMV): Viability assay - alamar blue signal for LCMV Primary Screen (AID 1347085); note: nearly all actives have a fitted effect of over 80% in size
- MEASUREMENT_PARAMETERS: alamar blue viability counter-screen, LCMV vRNP screen cells; series mostly up to 57.5 µM
Inconclusive results are not listed. Active and inactive are the calls of the source. Calls come from the whole dose curve; tested in HEK293 reporter line.
Possible outcomes: active, inactive

{"columns": ["LINE_NOTATION", "CLASSIFICATION"],
 "data": [
  ["O=c1ccn([C@@H]2O[C@H](COP(=O)(O)OP(=O)(O)O)[C@@H](O)[C@H]2O)c(=O)[nH]1", "inactive"],
  ["COc1ccc(CNC(=S)NCc2ccc(OC)cc2)cc1", "inactive"],
  ["CC(C)n1nc(-c2ccc3oc(N)nc3c2)c2c(N)ncnc21", "active"]
]}
